# Test system: Florida/4/2006
# experimentDescription: microbe, parasite or virus in culture
# Assay type: cell-based
# measurementParameters: Table 7
In this section, each of the compounds is paired with its reported EC50 Florida/4/2006.

{"compound": "CC(=O)N[C@H]1[C@H]([C@H](OC(=O)NCCCCNC(=O)[C@@H]2C[C@H](C(=O)NCCCCNC(=O)O[C@@H]([C@@H]3OC(C(=O)O)=C[C@H](N=C(N)N)[C@H]3NC(C)=O)[C@H](O)CO)C[C@H](C(=O)N[C@@H](CC(=O)O)C(=O)O)C2)[C@H](O)CO)OC(C(=O)O)=C[C@@H]1N=C(N)N [MD206, CHTCA(Zb)2-L-Asp]", "unitOfMeasure": "ng/mL", "censoringOperator": ">", "EC50 Florida/4/2006": 10000}
{"compound": "CC(=O)N[C@H]1[C@H]([C@H](OC(=O)NCCCCCNC(=O)[C@@H]2C[C@H](C(=O)NCCCCCNC(=O)O[C@@H]([C@@H]3OC(C(=O)O)=C[C@H](N=C(N)N)[C@H]3NC(C)=O)[C@H](O)CO)C[C@H](C(=O)N[C@@H](CC(=O)O)C(=O)O)C2)[C@H](O)CO)OC(C(=O)O)=C[C@@H]1N=C(N)N [MD242, CHTCA(Zp)2-L-Asp]", "unitOfMeasure": "ng/mL", "censoringOperator": "=", "EC50 Florida/4/2006": 0.71}
{"compound": "CC(=O)N[C@H]1[C@H]([C@H](OC(=O)NCCCCCCCCNC(=O)[C@@H]2C[C@H](C(=O)NCCCCCCCCNC(=O)O[C@@H]([C@@H]3OC(C(=O)O)=C[C@H](N=C(N)N)[C@H]3NC(C)=O)[C@H](O)CO)C[C@H](C(=O)N[C@@H](CC(=O)NCS(=O)(=O)O)C(=O)NCS(=O)(=O)O)C2)[C@H](O)CO)OC(C(=O)O)=C[C@@H]1N=C(N)N [MD154, CHTCA(Z0)2-L-Asp(NHCH2SO3H)2]", "unitOfMeasure": "ng/mL", "censoringOperator": "<", "EC50 Florida/4/2006": 0.13}
{"compound": "CC(=O)N[C@H]1[C@H]([C@H](OC(=O)NCCCCCCNC(=O)c2cc(C(=O)O)c(C(=O)NCCCCCCNC(=O)O[C@@H]([C@@H]3OC(C(=O)O)=C[C@H](N=C(N)N)[C@H]3NC(C)=O)[C@H](O)CO)cc2C(=O)O)[C@H](O)CO)OC(C(=O)O)=C[C@@H]1N=C(N)N [MD015, PK1 PYR(Z)2]", "unitOfMeasure": "ng/mL", "censoringOperator": "=", "EC50 Florida/4/2006": 2.5}

Data provenance: patent US11007274B2
